Collected melting point values appear next to each entry.

compound | melting point
O=C(C=Cc1ccc(F)cc1)c1ccc(Nc2nc3ccccc3n3cnnc23)cc1 | 247 to 249 °C
Cc1ccc(C=CC(=O)c2ccc(Nc3nc4ccccc4n4cnnc34)cc2)cc1 | 245 to 247 °C
O=[N+]([O-])c1cccc(C2CC(c3ccc(Nc4nc5ccccc5n5cnnc45)cc3)=NN2)c1 (stereo not drawn) | 195 to 197 °C
COc1ccc(C=CC(=O)c2ccc(Nc3nc4ccccc4n4cnnc34)cc2)cc1 | 250 to 253 °C
Clc1cccc(Cl)c1C1CC(c2ccc(Nc3nc4ccccc4n4cnnc34)cc2)=NN1 (stereo not drawn) | 176 to 178 °C
O=C(C=Cc1cccc([N+](=O)[O-])c1)c1ccc(Nc2nc3ccccc3n3cnnc23)cc1 | 257 to 259 °C
c1ccc(C2CC(c3ccc(Nc4nc5ccccc5n5cnnc45)cc3)=NN2)cc1 (stereo not drawn) | 150 to 152 °C
O=C(C=Cc1c(Cl)cccc1Cl)c1ccc(Nc2nc3ccccc3n3cnnc23)cc1 | 260 to 263 °C
O=C(C=Cc1ccccc1)c1ccc(Nc2nc3ccccc3n3cnnc23)cc1 | 275 to 277 °C
CC(=O)c1ccc(Nc2nc3ccccc3n3cnnc23)cc1 | 171 to 172 °C
O=C(C=Cc1ccc(Cl)cc1)c1ccc(Nc2nc3ccccc3n3cnnc23)cc1 | 240 to 243 °C
O=C(C=Cc1ccc([N+](=O)[O-])cc1)c1ccc(Nc2nc3ccccc3n3cnnc23)cc1 | 261 to 263 °C

----------
- system: DNA
- run-description: In vitro DNA/methyl green assay (DNA binding)
- stated-conditions: DNA/methyl green displacement, mean ± SD of three experiments
IC50 listing for selected compounds.

compound | system | units-label | IC50
Clc1ccc(C2CC(c3ccc(Nc4nc5ccccc5n5cnnc45)cc3)=NN2)cc1 (stereo not drawn) | DNA | µM | 32.5
Cc1ccc(C2CC(c3ccc(Nc4nc5ccccc5n5cnnc45)cc3)=NN2)cc1 (stereo not drawn) | DNA | µM | 29.1
COc1cccc2c1C(=O)c1c(O)c3c(c(O)c1C2=O)C[C@@](O)(C(=O)CO)C[C@@H]3O[C@H]1C[C@H](N)[C@H](O)[C@H](C)O1 [Doxorubicin, reference compound] | DNA | µM | 31.3
Fc1ccc(C2CC(c3ccc(Nc4nc5ccccc5n5cnnc45)cc3)=NN2)cc1 (stereo not drawn) | DNA | µM | 31.2
O=[N+]([O-])c1ccc(C2CC(c3ccc(Nc4nc5ccccc5n5cnnc45)cc3)=NN2)cc1 (stereo not drawn) | DNA | µM | 36.5
Cc1ccc(C=CC(=O)c2ccc(Nc3nc4ccccc4n4cnnc34)cc2)cc1 | DNA | µM | 38

----------
A set of compounds tested on human Topo II (Homo sapiens), with measured pIC50:
pIC50: −log10 of the molar value.

compound | pIC50
O=[N+]([O-])c1ccc(C2CC(c3ccc(Nc4nc5ccccc5n5cnnc45)cc3)=NN2)cc1 (centres unmarked) | 5.91
Cc1ccc(C2CC(c3ccc(Nc4nc5ccccc5n5cnnc45)cc3)=NN2)cc1 (centres unmarked) | 6.05
Clc1ccc(C2CC(c3ccc(Nc4nc5ccccc5n5cnnc45)cc3)=NN2)cc1 (centres unmarked) | 5.98
Cc1ccc(C=CC(=O)c2ccc(Nc3nc4ccccc4n4cnnc34)cc2)cc1 | 5.89
Fc1ccc(C2CC(c3ccc(Nc4nc5ccccc5n5cnnc45)cc3)=NN2)cc1 (centres unmarked) | 6.03

----------
- Tested on: HepG2
- run-description: MTT colorimetric anti-proliferative assay
- stated-conditions: Homo sapiens, HepG2, 72 h, read-out: IC50 HepG2
pIC50: −log10 of the molar value.
Cut-off 5 on pIC50, inclusive. At or above means true; below means false.

molecule | system | cat
O=C(C=Cc1ccc([N+](=O)[O-])cc1)c1ccc(Nc2nc3ccccc3n3cnnc23)cc1 | HepG2 | false
O=C(C=Cc1c(Cl)cccc1Cl)c1ccc(Nc2nc3ccccc3n3cnnc23)cc1 | HepG2 | false
Fc1ccc(C2CC(c3ccc(Nc4nc5ccccc5n5cnnc45)cc3)=NN2)cc1 (stereo not shown) | HepG2 | true
c1ccc(C2CC(c3ccc(Nc4nc5ccccc5n5cnnc45)cc3)=NN2)cc1 (stereo not shown) | HepG2 | false
O=C(C=Cc1ccccc1)c1ccc(Nc2nc3ccccc3n3cnnc23)cc1 | HepG2 | false
Cc1ccc(C2CC(c3ccc(Nc4nc5ccccc5n5cnnc45)cc3)=NN2)cc1 (stereo not shown) | HepG2 | true
O=C(C=Cc1cccc([N+](=O)[O-])c1)c1ccc(Nc2nc3ccccc3n3cnnc23)cc1 | HepG2 | false
COc1ccc(C=CC(=O)c2ccc(Nc3nc4ccccc4n4cnnc34)cc2)cc1 | HepG2 | false
O=[N+]([O-])c1cccc(C2CC(c3ccc(Nc4nc5ccccc5n5cnnc45)cc3)=NN2)c1 (stereo not shown) | HepG2 | false
O=C(C=Cc1ccc(Cl)cc1)c1ccc(Nc2nc3ccccc3n3cnnc23)cc1 | HepG2 | false

----------
- System: HepG2
- run-description: MTT colorimetric anti-proliferative assay
- stated-conditions: Homo sapiens, HepG2, 72 h, read-out: IC50 HepG2
Mark each entry true if its IC50 sits below 10 µM, and false for all others.

compound | system | cat
O=C(C=Cc1ccc(F)cc1)c1ccc(Nc2nc3ccccc3n3cnnc23)cc1 [Compound 6c] | HepG2 | false
Clc1cccc(Cl)c1C1CC(c2ccc(Nc3nc4ccccc4n4cnnc34)cc2)=NN1 (stereo not drawn) [Compound 7d] | HepG2 | false
CC(=O)c1ccc(Nc2nc3ccccc3n3cnnc23)cc1 [Compound 5] | HepG2 | false
Clc1ccc(C2CC(c3ccc(Nc4nc5ccccc5n5cnnc45)cc3)=NN2)cc1 (stereo not drawn) [Compound 7b] | HepG2 | true
O=[N+]([O-])c1ccc(C2CC(c3ccc(Nc4nc5ccccc5n5cnnc45)cc3)=NN2)cc1 (stereo not drawn) [Compound 7g] | HepG2 | true
Cc1ccc(C=CC(=O)c2ccc(Nc3nc4ccccc4n4cnnc34)cc2)cc1 [Compound 6e] | HepG2 | false

Measured values drawn from paper PMC9154796 for this set.
